Sourced from patent US9517278B2

Assay Name: Tumor accumulation evaluated by fluorescence of tumor homogenate
Assay type: in vivo
Condition Info: intravenous, 32 nmol in terms of the amount of dye, colon 26 tumor-bearing mouse, tail vein, 32 nmol as dye, 24 hours after administration
Result Type: tissue uptake at 24 h (%ID/g)

- Smi: "CC1(C)C(/C=C/C=C/C=C/C=C2/N(CCCCS(=O)(=O)[O-])c3ccc4ccccc4c3C2(C)C)=[N+](CCCCS(=O)(=O)[O-])c2ccc3ccccc3c21.[Na+]"
  Units Text: "%ID/g"
  Val: 0.1
